Cited source: patent US20240409645A1

Biological target: T1, mouse IL-2Rγ (mouse) (UniProt P34902)
T1 sequence (looked up): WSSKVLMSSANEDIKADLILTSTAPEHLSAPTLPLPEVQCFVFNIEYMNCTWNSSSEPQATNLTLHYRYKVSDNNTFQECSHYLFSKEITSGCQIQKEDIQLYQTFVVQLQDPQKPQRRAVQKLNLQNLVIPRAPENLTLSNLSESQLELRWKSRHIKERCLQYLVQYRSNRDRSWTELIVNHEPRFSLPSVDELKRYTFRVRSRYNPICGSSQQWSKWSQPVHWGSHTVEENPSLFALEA
Test: PE binding ELISA, periplasmic extract on coated protein
MEASURED METRIC: OD (PE binding ELISA) (OD450 nm)

FJ1427_P035MP04B07 (VHH) VHH: EVQLVESGGGWVQVGESLRLSCAPSGRTFVSGIMGWFRQTPGKEREFVARIILNNNSTRYTDSVKGRFTISRDSAKNTLYLQMNTLRPEDTAVYYCAARDRYGSGNSLSPSAYDYWGQGTQVTVSS = 0.047
FJ1427_P035MP04H10 (VHH) VHH: QVQLVESGGGLVQAGGSLRLSCAPSGRTFVSGIMGWFRQAPGKEREFVARIILNNNSTRYIDSVKGRFTISRDSAKNTMYLQMDSLRPEDTAVYYCAARDRYGSGNSLSPSAYDYWGQGTQVTVSS = 0.049
FJ1427_P035MP04H08 (VHH) VHH: EVQLVESGGGLVQAGESLRLSCAASGPTASRVAVAWFRQVPGKEREFVAVVNRPGTMTKYADSVKGRFTISRDSAKNTVYLQMNSLKPEDTAVYYCAADSVPYGRPYYFQTSAGNYDYWGQGTQVTVSS = 0.053
FJ1427_P035MP04A04 (VHH) VHH: QVQLVESGGGLVQAGESLRLSCAASGPTASRVAVAWFRQVPGKEREFVAVVNRPGTMTKYADSVKGRFTISRDSAKNTVYLQMNSLKPEDTAVYYCAADSVPYGRPYYFQTSAGNYDYWGQGTQVTVSS = 0.05
